Tested on: Henosepilachna vigintioctopunctata
test name: Antifeedant activity against Henosepilachna vigintioctopunctata in Solanum nigrum leaves assessed as mean leaf area fed at 1 ug/cm'2 by dual choice leaf disk bioassay (reference value: 0.75 +/- 0.06 to 0.92 +/- 0.05 cm'2)
Format: functional
Kindly apply the following: yes if Activity is less than 0.5 cm2, no in every other case.

{"columns": ["molecule", "classification"],
 "data": [
  ["Cc1cc(O)c2c(c1)C(=O)c1cc(O)cc(O)c1C2=O [EMODIN]", "yes"],
  ["COc1cc(OC)c2c(c1OC)C(=O)C1=C(C2=O)[C@@H](C)O[C@@H](C)C1 [VENTILOQUINONE E]", "no"],
  ["COc1cc(O)c2c(c1)C(=O)c1cc(C)cc(O)c1C2=O [PHYSCION]", "no"],
  ["Cc1cc(O)c2c(c1)C(=O)c1cccc(O)c1C2=O [CHRYSOPHANOL]", "no"],
  ["COc1c2c(c(OC)c3c1C(=O)C1=C(C3=O)[C@@H](C)O[C@@H](C)C1)OCO2 [VENTILOQUINONE B]", "no"],
  ["C/C=C(\\C)C(=O)O[C@H]1C[C@@H](OC(C)=O)[C@@]2(C(=O)OC)CO[C@H]3[C@@H](O)[C@@](C)([C@]45O[C@@]4(C)[C@H]4C[C@@H]5O[C@@H]5OC=C[C@@]54O)[C@H]4[C@]1(CO[C@]4(O)C(=O)OC)[C@@H]32 [AZADIRACTIN]", "yes"],
  ["COc1c2c(c(O)c3c1C(=O)c1coc(C)c1C3=O)OCO2 [VENTILONE B]", "no"],
  ["COc1c2c(c(O)c3c1C(=O)C1=C(C[C@H](C)O[C@@H]1C)C3=O)OCO2 [VENTILOQUINONE A]", "yes"]
]}

###

# Lookup of reported Activity keyed by entry
Tested on: Spodoptera litura
test name: Antifeedant activity against Spodoptera litura in Ricinus communis leaves assessed as mean leaf area fed at 10 ug/cm'2 by dual choice leaf disc bioassay (reference value: 52.8 +/- 2.50 to 53.6 +/- 4.76 cm'2)
Type: functional

{"columns": ["smiles data", "test system", "Activity (cm2)"],
 "data": [
  ["COc1cc(O)c2c(c1)C(=O)c1cc(C)cc(O)c1C2=O", "Spodoptera litura", 11.3],
  ["COc1c2c(c(O)c3c1C(=O)c1coc(C)c1C3=O)OCO2", "Spodoptera litura", 13],
  ["C/C=C(\\C)C(=O)O[C@H]1C[C@@H](OC(C)=O)[C@@]2(C(=O)OC)CO[C@H]3[C@@H](O)[C@@](C)([C@]45O[C@@]4(C)[C@H]4C[C@@H]5O[C@@H]5OC=C[C@@]54O)[C@H]4[C@]1(CO[C@]4(O)C(=O)OC)[C@@H]32", "Spodoptera litura", 5],
  ["COc1cc(OC)c2c(c1OC)C(=O)C1=C(C2=O)[C@@H](C)O[C@@H](C)C1", "Spodoptera litura", 13.3],
  ["Cc1cc(O)c2c(c1)C(=O)c1cc(O)cc(O)c1C2=O", "Spodoptera litura", 11],
  ["Cc1cc(O)c2c(c1)C(=O)c1cccc(O)c1C2=O", "Spodoptera litura", 13.6],
  ["COc1c2c(c(OC)c3c1C(=O)C1=C(C3=O)[C@@H](C)O[C@@H](C)C1)OCO2", "Spodoptera litura", 11.6],
  ["COc1c2c(c(O)c3c1C(=O)C1=C(C[C@H](C)O[C@@H]1C)C3=O)OCO2", "Spodoptera litura", 7.2]
]}
